# Test system: LXRa:RXRa (NR concentration 270 nM, RXRa partner concentration 90 nM)
# Experiment Summary: PBM binding z-score (relative to random genomic background probes); higher = stronger binding; sequences stand for … in GC…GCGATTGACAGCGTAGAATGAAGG
// reported PBM binding z-score per item
Quantity Measured: PBM binding z-score

| Biosequence | Target Desc | Quantity Measured | Reported |
| --- | --- | --- | --- |
| GCTGCTAGGTCAACTGAGGGTCAGCTAAAGCTCG | LXRa:RXRa (NR concentration 270 nM, RXRa partner concentration 90 nM) | PBM binding z-score | 4.47 |
| CGCCCAAGGTCAGCAGGTCAGTGAAAGCGACGTG | LXRa:RXRa (NR concentration 270 nM, RXRa partner concentration 90 nM) | PBM binding z-score | 4.2 |
| ATATGGAGGTTAAGGGTCATTCAGGTTGGTTCGC | LXRa:RXRa (NR concentration 270 nM, RXRa partner concentration 90 nM) | PBM binding z-score | 5.67 |
| AGTCAAAGTTCAGGACGAGGTCACGTAAAGCACG | LXRa:RXRa (NR concentration 270 nM, RXRa partner concentration 90 nM) | PBM binding z-score | 5.87 |
| CTATGTAGGTTAAGGCGGTCATTCAGTTTGAAAG | LXRa:RXRa (NR concentration 270 nM, RXRa partner concentration 90 nM) | PBM binding z-score | 2.21 |
| CCGAGTAGGTGACGAGGGGGCATTCAGTGCGAAT | LXRa:RXRa (NR concentration 270 nM, RXRa partner concentration 90 nM) | PBM binding z-score | 3.03 |
| CGAACTAGGTCAAAGCACAGTGAAAGGCGACGTA | LXRa:RXRa (NR concentration 270 nM, RXRa partner concentration 90 nM) | PBM binding z-score | 2.6 |
| AGTCAAAGTTCACGACGAGGTAACGTAAAGCACG | LXRa:RXRa (NR concentration 270 nM, RXRa partner concentration 90 nM) | PBM binding z-score | 6.16 |
| ATATGTAGGTTAGGGTTATTCAGAAAGTAGGGAA | LXRa:RXRa (NR concentration 270 nM, RXRa partner concentration 90 nM) | PBM binding z-score | 2.27 |
| ACTAGCAGGCCAAGGGTGACTCAAGATTAGTCCG | LXRa:RXRa (NR concentration 270 nM, RXRa partner concentration 90 nM) | PBM binding z-score | -0.205 |
| CGAACTAGGTCACCCGGACAGTGAAGAGGTTGGA | LXRa:RXRa (NR concentration 270 nM, RXRa partner concentration 90 nM) | PBM binding z-score | 2.15 |
| ATATGTAGGTTAGTGTCATTCAGAAAGTAGGGAA | LXRa:RXRa (NR concentration 270 nM, RXRa partner concentration 90 nM) | PBM binding z-score | 1.03 |

====

# Tested on: PPARg:RXRa 270nM:90nM, anti-RXR (NR concentration 270 nM, RXRa partner concentration 90 nM)
# Experiment Summary: PBM binding z-score (relative to random genomic background probes); higher = stronger binding; sequences stand for … in GC…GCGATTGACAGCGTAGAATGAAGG
Range-based classes on measured PBM binding z-score: low = under 4, middle = from 4 up to 7, high = 7 and over

| Biosequence | Group |
| --- | --- |
| AGTCAAAGTTCATCTGGGTAACGTAAGATATGCT | middle |
| CGTCCGAGGTCAAAGGTCAGTGAAGAGATGACGG | high |
| CGTCCAAGGTCAATGTTAGGTCAGTGAAAGCATT | middle |
| CCGAGTGGGTTACGAGGGGGCATTCAGTGCGAAT | low |
| CCGAGTAGGTTACGAGGGGGCACTCAGTGCGAAT | low |
| AATACAGGGTCACTAGGCCAGAGTGGGTACGAAT | middle |
| CCTACTGGGCCATACAGAGGTCATTGATCATATG | low |
| AGTAAAAGTTCACTAGGTAACGTAAGATTCAGCT | middle |
| CGAAATAGGTCACCAGGACAGTGAAGAGGTTGGA | high |
| CGTCAAAGTTCAACTAATGTAACGTAAAGCACGC | middle |
| ACTAATTGGTCAGCTGAGGTCACACACAATTCGG | low |
